Assay: soluble on expression in E. coli; label from the status in PepcDB or PDB records

query sequence	soluble on expression in E. coli
MKPYERLLEHNIKPSMQRIAIMEYLMNHPIHPSADDIYTALSPSMPTLSKTTVYNTLRLFSEQGAALMLTIDEKNTNFDADTSVHSHFLCRYCGHIYDLKSPEAVKKVESLEMDGHQVTEVHYYYKGICKNCLRKDKETRID	not soluble
MKLLLIGYGNVGKAFRRLLHEKKDNYPILQGVEIAGIITRQGLMVGDKENFSPDKQLTVLEAIDYINPDVIVDMSVPNYKDGEPSVSAYIKALSRKIHVITVNKAPLALKFREIFEVAEKTGAKIGFQGTVMSGTPSINLFRIQPVAEVSRIRGILNGTTNYILTRIYEGLSFNEALKEAKEKGYAEEDPTLDLNGFDAAAKLTILSNFIMNRSLKLGDFKFKGITEITNEEIRRAKSEGKKIKLIAYADNYVVQVSPQIIGPQDPLYYIDGVENALEIQNEIQRIIIRGPGAGPINAAYGALSDLVLLLEGCL	not soluble
